Target: β-lactamase produced by Enterobacter cloacae IFO 12937 (Enterobacter cloacae, UniProt P05364)
Construct: The β-lactamase produced by Enterobacter cloacae IFO 12937; endogenous in cells; host or cells: Enterobacter cloacae IFO 12937
Sequence (P05364 21-381): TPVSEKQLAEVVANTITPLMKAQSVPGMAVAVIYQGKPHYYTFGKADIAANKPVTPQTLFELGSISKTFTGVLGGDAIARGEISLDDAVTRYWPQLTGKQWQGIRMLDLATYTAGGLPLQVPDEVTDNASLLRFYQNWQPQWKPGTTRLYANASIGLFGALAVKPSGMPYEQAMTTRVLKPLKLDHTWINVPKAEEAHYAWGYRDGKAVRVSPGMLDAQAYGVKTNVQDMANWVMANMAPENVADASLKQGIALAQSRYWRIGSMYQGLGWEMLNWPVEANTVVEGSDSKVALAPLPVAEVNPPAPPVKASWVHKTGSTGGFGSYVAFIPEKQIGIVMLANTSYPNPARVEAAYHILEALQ
Experiment: Inhibitor concentration required to inhibit β-lactamase (cephalosporinase) activity by 50%, micro-iodometric method
Type: biochemical
Settings: Enterobacter cloacae IFO 12937 cephalosporinase; 0.05M phosphate buffer pH 7, 30° C., 10 minutes preincubation; cephalothin or ampicillin 0.1 mM; read-out: I50 (converted)
// assign Y if IC50 falls strictly below 0.05 µM, else N (ties count as N)

{"COMPOUND": "CC(C)ON=C(C(=O)NC1CN(S(=O)(=O)[O-])C1=O)c1csc(NS(C)(=O)=O)n1.[Na+] (stereo not shown)", "GROUP": "Y"}
{"COMPOUND": "COC1(NC(=O)C(N=[N+]=[N-])c2ccccc2)CN(S(=O)(=O)O)C1=O (stereo not shown)", "GROUP": "N"}
{"COMPOUND": "CC(C)ON=C(C(=O)NC1CN(S(=O)(=O)O)C1=O)c1csc(N)n1 (stereo not shown) [Compound 23]", "GROUP": "N"}
{"COMPOUND": "CON=C(C(=O)NC1CN(S(=O)(=O)O)C1=O)c1ccccc1 (stereo not shown)", "GROUP": "N"}
{"COMPOUND": "CC(C)ON=C(C(=O)NC1CN(S(=O)(=O)[O-])C1=O)c1csc(=N)n1S(C)(=O)=O.[Na+] (stereo not shown)", "GROUP": "Y"}
{"COMPOUND": "CCN1CCN(C(=O)NC(C(=O)NC2(OC)CN(S(=O)(=O)O)C2=O)c2ccccc2)C(=O)C1=O (stereo not shown)", "GROUP": "N"}
